These data points were gathered from ChEMBL document CHEMBL4513141.

# Tested on: Escherichia coli
# condition context: Concentration 20 uM; ASSAY_TEST Inhibition of Bacterial Growth; detection method Absorption (OD600); MEDIA CAMHB; plate type 384well; NBS; CORNING #3640; time 18 hr
# Description: Antibacterial activity against Escherichia coli ATCC 25922 (CO-ADD:GN_001); MIC in CAMBH media using NBS plates, by OD(600)
Results with a measured potency or affinity are listed apart.
property name: Inhibition (%)
State the answer as a number, implicitly in %.

compound | value units | Inhibition
CC(=O)OCC(=O)[C@@]1(O)CC[C@H]2[C@@H]3C[C@H](C)C4=CC(=O)C=C[C@]4(C)[C@H]3[C@@H](O)C[C@@]21C [METHYLPREDNISOLONE ACETATE] | % | -0.44
CC(CN1c2ccccc2Sc2ccccc21)N(C)C.Cl (centres undefined) [PROMETHAZINE HYDROCHLORIDE] | % | 1.25
CCCSc1ccc2[nH]c(NC(=O)OC)nc2c1 [ALBENDAZOLE] | % | 1.87
Nc1ccc2cn[nH]c2c1 | % | 5.89

Please turn your attention to the following entry.
Q: Give Inhibition (Escherichia coli) of the following compound: "COc1ccc(/C=C/C(=O)Nc2ccccc2C(=O)O)cc1OC"
Result: -3.33
